Readings of pEC50 for the listed molecules
- TESTED SYSTEM: F508delCFTR (Homo sapiens, UniProt P13569, DEL508-508)
- Construct: expressed in transfected cells; host or cells: CFBE41o- human lung-derived epithelial cells (CFBE4lo-F508delCFTR-HRP), doxycycline-inducible
- Sequence (P13569 with tags, fused parts or gaps DEL508-508): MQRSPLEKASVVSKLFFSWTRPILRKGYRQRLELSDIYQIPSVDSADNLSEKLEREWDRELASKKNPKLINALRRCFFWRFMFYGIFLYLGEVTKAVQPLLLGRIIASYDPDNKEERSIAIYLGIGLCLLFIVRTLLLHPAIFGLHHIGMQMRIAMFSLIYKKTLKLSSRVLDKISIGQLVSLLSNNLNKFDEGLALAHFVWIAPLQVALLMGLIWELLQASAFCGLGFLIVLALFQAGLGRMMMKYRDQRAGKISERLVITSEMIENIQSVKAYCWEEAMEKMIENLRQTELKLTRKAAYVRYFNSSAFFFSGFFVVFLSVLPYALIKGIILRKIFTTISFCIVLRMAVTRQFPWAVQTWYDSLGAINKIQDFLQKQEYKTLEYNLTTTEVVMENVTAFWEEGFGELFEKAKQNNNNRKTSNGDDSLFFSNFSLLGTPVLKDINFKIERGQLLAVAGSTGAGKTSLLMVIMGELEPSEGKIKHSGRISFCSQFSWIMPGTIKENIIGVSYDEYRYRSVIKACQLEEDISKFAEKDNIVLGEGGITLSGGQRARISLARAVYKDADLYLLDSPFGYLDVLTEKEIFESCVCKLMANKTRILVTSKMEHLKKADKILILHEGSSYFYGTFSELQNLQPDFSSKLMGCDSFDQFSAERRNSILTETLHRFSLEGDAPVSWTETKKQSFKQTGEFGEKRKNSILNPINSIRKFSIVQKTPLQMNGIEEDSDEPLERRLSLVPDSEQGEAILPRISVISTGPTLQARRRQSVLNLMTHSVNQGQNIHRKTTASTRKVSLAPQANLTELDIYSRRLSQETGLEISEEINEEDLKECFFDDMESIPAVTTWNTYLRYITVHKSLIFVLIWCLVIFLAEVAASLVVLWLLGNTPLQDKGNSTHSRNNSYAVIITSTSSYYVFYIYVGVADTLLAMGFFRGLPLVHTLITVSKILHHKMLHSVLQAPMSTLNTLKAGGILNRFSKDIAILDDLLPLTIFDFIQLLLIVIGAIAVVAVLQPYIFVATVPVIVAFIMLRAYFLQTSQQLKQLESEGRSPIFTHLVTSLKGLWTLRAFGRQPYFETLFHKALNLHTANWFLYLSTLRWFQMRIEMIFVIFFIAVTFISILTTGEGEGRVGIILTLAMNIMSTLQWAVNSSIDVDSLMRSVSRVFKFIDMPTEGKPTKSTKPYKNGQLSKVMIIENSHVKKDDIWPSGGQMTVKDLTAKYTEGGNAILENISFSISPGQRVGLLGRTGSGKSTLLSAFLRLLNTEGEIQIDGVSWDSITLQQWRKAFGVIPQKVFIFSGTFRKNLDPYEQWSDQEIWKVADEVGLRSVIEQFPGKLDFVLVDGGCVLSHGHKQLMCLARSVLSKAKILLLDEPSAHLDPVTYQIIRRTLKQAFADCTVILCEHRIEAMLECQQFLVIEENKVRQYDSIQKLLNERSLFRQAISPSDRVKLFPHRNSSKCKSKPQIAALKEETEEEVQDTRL
- EXPERIMENTAL DETAILS: Cell Surface Expression-Horse Radish Peroxidase (CSE-HRP) Assay
- Format: cell-based
- MEASUREMENT CONTEXT: with co-corrector (2 μM of 3-[(2R,4R)-4-({[1-(2,2-difluoro-1,3-benzodioxol-5-yl)cyclopropyl]carbonyl}amino)-7-methoxy-3,4-dihydro-2H-chromen-2-yl]benzoic acid); read-out: EC50 (with co-corrector)
pEC50: −log10 of the molar value.

[
  {
    "MOLECULE": "CC(C)(C)[C@@H]1[C@@H](NCc2cc(C(F)(F)F)ccc2OCCCS(C)(=O)=O)[C@@H](c2ccccc2)N(C(=O)C2CCCCC2)[C@H]1C(=O)O (racemic) [III-84]",
    "pEC50": "5.00 to 6.00"
  },
  {
    "MOLECULE": "COc1ncc(C2CCC2)cc1CN[C@H]1[C@H](C(C)(C)C)[C@@H](C(=O)O)N(C(=O)[C@@H]2CCCO2)[C@H]1c1ccccc1C1CC1 [Example 107]",
    "pEC50": "> 6.00"
  },
  {
    "MOLECULE": "COc1ncc(C(F)(F)F)cc1CN[C@H]1[C@H](C(C)(C)C)[C@@H](C(=O)O)N(C(=O)[C@@H]2CCCC(F)(F)C2)[C@H]1c1cccnc1OC [II-572]",
    "pEC50": "> 6.00"
  },
  {
    "MOLECULE": "COc1ncc(C2CCC2)cc1CN[C@H]1[C@H](C(C)(C)C)[C@@H](C(=O)O)N(C(=O)C2Cc3ccccc3CO2)[C@H]1c1ccccc1 (stereo partly drawn) [Example I-206]",
    "pEC50": "5.00 to 6.00"
  },
  {
    "MOLECULE": "CC(C)(C)[C@@H]1[C@@H](NCc2cc(C(F)(F)F)ccc2OCCO)[C@@H](c2ccccc2)N(C(=O)C2CCCCC2)[C@H]1C(=O)O (racemic) [III-66]",
    "pEC50": "5.00 to 6.00"
  },
  {
    "MOLECULE": "COc1ncc(C(F)(F)F)cc1CN[C@H]1[C@H](C(C)(C)C)[C@@H](C(=O)O)N(C(=O)C2CCCCC2)[C@H]1c1ccccc1 [Example 12]",
    "pEC50": "> 6.00"
  }
]
